Data origin: paper PMC5540273

test system: FGFR3; settings: concentration: 1 μM, replicates: in singlicate; n = 1;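 note: KINOMEscan kinase panel screen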
Assay Readout: %Inh (%)
Just the number in %, nothing appended.

For the molecule shown here, COc1ccc(Nc2nccc(N3CCC(NC(=O)Nc4cccc(OC)c4)C3)n2)cc1 (stereo not shown) [GSK1379742] , give the reported %Inh. 5

Another molecule: O=C(Nc1ccccc1F)NC1CCN(c2ccnc(Nc3ccc(F)cc3)n2)CC1 [GSK1379800] 0

Another molecule: O=C(Nc1n[nH]c2cc(-c3ccoc3)ccc12)C1CC1 [SB-738481] 7

Another molecule: CN1CCN(Cc2cccc(-c3ccc4c(Nc5ccc(Oc6ccccc6)cc5)ccnc4c3)c2)CC1 [GW578342] 17

Another molecule: Cn1cc(-c2ccc3c(c2)CCN3C(=O)Cc2cccc(F)c2)c2c(N)ncnc21 [GSK2603358] 0

Another molecule: COc1cc2c(cc1OCCN1CCNCC1)ncc1c3ccc(C#N)cc3[nH]c21 21

Another molecule: c1ccc(-c2cnc3nccnn23)cc1 [AH20685] 0

Another molecule: Cc1ccc(C(=O)Nc2ccc(Nc3ccnc4cc(-c5nccs5)ccc34)cc2O)cc1.Cl [GW494702] 13

Another molecule: FC(F)(F)c1ccc(/C=C/c2cncnc2Nc2ccc3[nH]c(Cc4ccccc4)nc3c2)cc1 [GW709199] 0

Another molecule: Cc1occc1-c1ncc(OC[C@@H](N)Cc2c[nH]c3ccccc23)cc1-c1ccc2[nH]nc(C)c2c1.O=C(O)C(F)(F)F [GSK682037] 1

---

Provide the recorded %Inh for the entries that follow.
test system: MST1R; conditions: concentration: 1 μM, replicates: in singlicate; n = 1
Just the number in %, nothing appended.

For the compound shown here, CN(C)S(=O)(=O)c1cc(-c2ccc3nccc(-c4cccc(S(N)(=O)=O)c4)c3c2)cnc1N , give the reported %Inh. 32

Another compound: CCCCc1nn2ncccc2c1-c1ccnc(Nc2ccc(N3CCN(C)CC3)cc2)n1 45

Another compound: c1ccc(Oc2ccc(Nc3ccnc4cc(-c5ccc(CNCCN6CCOCC6)o5)ccc34)cc2)nc1 16

Another compound: COc1ccc(Nc2nccc(NCCNC(=O)c3cc4ccccc4s3)n2)cc1 40

Another compound: C[C@@H](Oc1cc(-n2cnc3cc(-c4ccnc(NCCS(C)(=O)=O)c4)ccc32)sc1C(N)=O)c1ccccc1Cl 57

Another compound: Cn1cc(-c2ccc3c(c2)CCN3C(=O)Cc2cccc(Cl)c2)c2c(N)ncnc21 38

---

test system: MLK2; settings: concentration: 1 μM, replicates: in singlicate; n = 1
Assay Readout: %Inh (%)
Just the number in %, nothing appended.

For the compound shown here, O=C(O)C(F)(F)F.O=C(O)C(F)(F)F.O=c1[nH]ccc2nc(N[C@@H]3CCCNC3)nc(Nc3ccc(S(=O)(=O)N4CCOCC4)cc3)c12 [GSK2177277] , give the reported %Inh. 83

Another compound: CCn1c(-c2nonc2N)nc2c(C#CC(C)(C)O)nc(OC[C@H](N)c3ccccc3)cc21 [GSK943949] 23

Another compound: O=c1[nH]cc(-c2ccc(N3CCOCC3)cc2)c2sc(-c3cn[nH]c3)cc12 [GSK2276055] 0

Another compound: Nc1n[nH]c2cnc(-c3ccccc3)cc12 [SB-642124] 0

Another compound: CCCCc1nn2ncccc2c1-c1ccnc(Nc2ccc(N3CCN(C)CC3)cc2)n1 [GW684941] 5

Another compound: Cc1ccc(C(=O)N2CC[C@@H](O)C2)cc1-n1c(C)cc(OCc2ccc(F)cc2F)c(Br)c1=O 5

Another compound: Oc1cc(Nc2ccnc3cc(I)ccc23)ccc1F [GW552771] 13

Another compound: COc1ccc(Nc2nccc(N3CCC(NC(=O)Nc4cccc(OC)c4)C3)n2)cc1 (stereo not drawn) [GSK1379742] 0

Another compound: COc1ccc(Nc2nccc(NCCNC(=O)c3cc4ccccc4s3)n2)cc1 [GSK1379896] 0

Another compound: CN1CCN(Cc2cccc(-c3ccc4c(Nc5ccc(Oc6ccccc6)cc5)ccnc4c3)c2)CC1 [GW578342] 5

Another compound: O=C(Nc1n[nH]c2nc(-c3ccc(O)cc3)ccc12)C1CC1 [SB-710363] 0

Another compound: COc1cccc(C2=C(Nc3ccc(Cl)c(C(=O)O)c3)C(=O)NC2=O)c1 [SB-390769] 0

Another compound: O=C(Nc1n[nH]c2cc(-c3ccoc3)ccc12)C1CC1 [SB-738481] 0

Another compound: c1ccc(Oc2ccc(Nc3ccnc4cc(-c5ccc(CNCCN6CCOCC6)o5)ccc34)cc2)nc1 [GW567145] 0

Another compound: COc1cccc(-c2ccc3c(NC(=O)C4CC4)n[nH]c3n2)c1 [SB-710903] 0

Another compound: Cl.c1ccc(-c2ccc3c(Nc4ccc5[nH]ncc5c4)ccnc3c2)nc1 [GW440137] 27

Another compound: O=C(Nc1cccc(-c2nn3ncccc3c2-c2ccnc(Nc3ccccc3)n2)c1)c1c(F)cccc1F [GSK198271] 0

Another compound: CCS(=O)(=O)c1ccc(OC)c(Nc2nccc(-c3c(-c4cccc(NC(=O)c5c(F)cccc5F)c4)nn4ncccc34)n2)c1 [GSK326180] 0

Another compound: Cc1cccc(Nc2nc(N[C@H]3CCNC3)ncc2C(N)=O)c1.Cl [GSK2197149] 4

Another compound: COc1cc(Nc2nccc(-c3c(-c4cccc(NC(=O)c5c(F)cccc5F)c4)nn4ccccc34)n2)cc(OC)c1OC [GSK323521] 56

Another compound: CCc1ccc(-c2ccc3c(c2)-c2c(cnn2C)S(=O)(=O)N3C)cc1 0

Another compound: C[C@@H]1CC[C@@H](C(=O)Nc2ccccc2)CN1c1cc(-c2ccc3c(N)n[nH]c3c2)nc(N)n1 [GSK2286062] 0

Another compound: COc1cccc(NC(=O)NC2CCN(c3ccnc(Nc4cc(OC)c(OC)c(OC)c4)n3)C2)c1 (stereo not drawn) [GSK1379763] 0

Another compound: CC(=O)N1CCN(c2ccc(Nc3nccc(-c4sc(C(C)C)nc4-c4cccc(NS(=O)(=O)c5cccc(Cl)c5)c4)n3)cn2)CC1 [GSK1660437] 33

Another compound: COC(=O)Nc1nc2cc(Oc3ccc(NC(=O)Nc4cc(C(F)(F)F)ccc4F)cn3)ccc2[nH]1.Cl.Cl [GW681170] 0

Another compound: O=C(Nc1cccc(-c2nn3ccccc3c2-c2ccnc(Nc3cccc(F)c3)n2)c1)c1c(F)ccc(F)c1Cl [GSK357952] 31

Another compound: Cn1cc(-c2ccc3c(c2)CCN3C(=O)Cc2cccc(F)c2)c2c(N)ncnc21 [GSK2603358] 11
